experiment: NCI Yeast Anticancer Drug Screen. Data for the mec2-1 strain (AID 157); details: S. cerevisiae mec2-1 strain, at 50.0 µM (retest, dose inferred, filed as 5.0)
The panel holds about 79,000 compounds, 15% with a hit somewhere; the sample as a whole holds those more often. Active and inactive are the calls of the source. Cut-off read from the data, not from the text of the source: active = growth inhibition above about 70%; inactive = the rest.
Field 'call' accepts Yes for active, No for inactive

Some solved cases for reference:
ClCc1ccc2oc3ccccc3c2c1; No
CCN1CCC(O)(/C=C/c2ccc(Cl)c(Cl)c2)C(C(=O)/C=C/c2ccc(Cl)c(Cl)c2)C1 (stereo unspecified); Yes
COc1ccc(/C(C#N)=C/c2ccncc2)cc1; No
COc1cc2c(cc1OC)-c1nc(N)sc1CC2; No
COC(=O)[C@H]1[C@@H](C(C)C)O[C@@H](C(C)C)O[C@H]1C(F)(F)F; No

Exam item: GET /call?item= `C/C(CCC(=O)O)=N/Nc1ccc(C(=O)O)cc1` returns the recorded outcome of this test.
Marked response: Yes

Exam item: Input `C1=CN2C(c3ccccc3)=NN(c3ccccc3)[C@@H]2c2ccccc21`
Marked response: No

Exam item: Another compound to look at: [N-]=[N+]=NCC(O)c1ccc2c(c1)[nH]c1ccccc12 (stereo unspecified)
Marked response: No

Exam item: Could you do the same for N#Cc1c(-c2ccc(Cl)cc2)c2c(n(C3OC(CO)C(O)C(O)C3O)c1=S)CCCC2 (stereo unspecified) , please?
Marked response: Yes

Exam item: What about O=[N+]([O-])C1CCC(C2=CSC3CCCCC3N2)CC1 (stereo unspecified) ?
Marked response: No

Exam item: Repeat with `Fc1ccc(NC(=S)SCc2ccc(Cl)cc2)c(F)c1`
Marked response: Yes
